study system: KRAS G12S (Homo sapiens (Human), UniProt P01116+P62937, G12S)
Sequence (P01116 other isoform, or with tags, fused parts or gaps G12S): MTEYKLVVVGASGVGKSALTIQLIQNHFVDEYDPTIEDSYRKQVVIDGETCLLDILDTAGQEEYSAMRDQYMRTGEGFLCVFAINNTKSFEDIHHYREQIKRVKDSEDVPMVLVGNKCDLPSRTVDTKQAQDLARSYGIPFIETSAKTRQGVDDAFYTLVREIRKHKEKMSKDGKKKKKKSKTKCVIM
Sequence (P62937 whole entry): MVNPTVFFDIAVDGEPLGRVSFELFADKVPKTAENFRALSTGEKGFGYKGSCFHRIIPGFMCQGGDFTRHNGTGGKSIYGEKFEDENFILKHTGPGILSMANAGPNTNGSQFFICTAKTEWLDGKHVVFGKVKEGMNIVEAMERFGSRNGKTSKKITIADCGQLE
protocol text: Ras-Raf disruption/FRET/MOA assay (BRAF RBD, Cyclophilin A)
Format: biochemical
test context: read-out: KRAS G12S FRET IC50
pIC50: −log10 of the molar value.
Consider the following compounds and their measured pIC50 readings.

compound	pIC50
CCn1c(-c2cccnc2[C@H](C)OC)c2c3cc(ccc31)-c1csc(n1)C[C@H](NC(=O)[C@H](C(C)C)N(C)C(=O)N1CC[C@]3(CCNC3=O)C1)C(=O)N1CCC[C@H](N1)C(=O)OCC(C)(C)C2 [Compound A479]	5.00 to 6.00
CCn1c(-c2cccnc2[C@H](C)OC)c2c3cc(ccc31)-c1csc(n1)C[C@H](NC(=O)[C@H](C(C)C)N(C)C(=O)N(C)CCc1ccncc1)C(=O)N1CCC[C@H](N1)C(=O)OCC(C)(C)C2 [Compound A557]	6.00 to 7.00
CCn1c(-c2cccnc2[C@H](C)OC)c2c3cc(ccc31)-c1cc(O)cc(c1)C[C@H](NC(=O)[C@H](C(C)C)N(C)C(=O)[C@H]1C[C@H]1F)C(=O)N1CCC[C@H](N1)C(=O)OCC(C)(C)C2 [Compound A162]	7.00 to 8.00
CCn1c(-c2cccnc2[C@H](C)OC)c2c3cc(ccc31)-c1csc(n1)C[C@H](NC(=O)[C@H](C(C)C)N(C)C(=O)N(C)N(C)C)C(=O)N1CCC[C@H](N1)C(=O)OCC(C)(C)C2 [Compound A454]	6.00 to 7.00
CCn1c(-c2cccnc2[C@H](C)OC)c2c3cc(ccc31)-c1csc(n1)C[C@H](NC(=O)[C@H](C(C)C)N(C)C(=O)N1CC[C@H]1CN)C(=O)N1CCC[C@H](N1)C(=O)OCC(C)(C)C2 [Compound A463]	6.00 to 7.00

---

study system: KRAS Q61H binding to BRAF RBD (Homo sapiens (Human), UniProt P01116+P62937, Q61H)
Sequence (P01116 other isoform, or with tags, fused parts or gaps Q61H): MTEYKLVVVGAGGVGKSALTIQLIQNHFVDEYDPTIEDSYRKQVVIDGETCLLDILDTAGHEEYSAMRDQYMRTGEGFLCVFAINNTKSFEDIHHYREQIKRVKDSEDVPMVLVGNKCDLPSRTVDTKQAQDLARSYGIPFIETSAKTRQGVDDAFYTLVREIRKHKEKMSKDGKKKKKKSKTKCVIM
Sequence (P62937 whole entry): as the sequence (P62937 whole entry) above
protocol text: Ras-Raf disruption/FRET/MOA assay, KRAS Q61H
Consider the following compounds and their measured IC50 readings.

compound	IC50
CCn1c(-c2cccnc2[C@H](C)OC)c2c3cc(ccc31)-c1csc(n1)C[C@H](NC(=O)C1(COC3CN(C(=O)C#CC(C)(C)N4CCC4)C3)CC1)C(=O)N1CCC[C@H](N1)C(=O)OCC(C)(C)C2	1000 to 10000 nM
C=CC(=O)N1CC[C@H](C(=O)N(C)[C@H](C(=O)N[C@H]2CC3CN(CCO3)c3ccc4c(c3)c(c(-c3cccnc3[C@H](C)OC)n4CC)CC(C)(C)COC(=O)[C@@H]3CCCN(N3)C2=O)C(C)C)C1	> 10000 nM
CCn1c(-c2cccnc2[C@H](C)OC)c2c3cc(ccc31)N1CCO[C@@H](C[C@H](NC(=O)[C@H](C(C)C)N(C)C(=O)[C@@]3(F)CCN(C(=O)C#CC(C)(C)N4CCC4)C3)C(=O)N3CCC[C@H](N3)C(=O)OCC(C)(C)C2)C1	1000 to 10000 nM
C=CC(=O)N1CC[C@H](C(=O)N(C)[C@H](C(=O)N[C@H]2Cc3cccc(c3)-c3ccc4c(c3)c(c(-c3cccnc3[C@H](C)OC)n4CC)CC(C)(C)COC(=O)[C@@H]3CCCN(N3)C2=O)[C@H](C)C(F)(F)F)C1 (atropisomer, axis not shown)	1000 to 10000 nM
C=CC(=O)N(C)CCN1CCN(C(=O)N(C)[C@H](C(=O)N[C@H]2C[n+]3cccc(c3)-c3ccc4c(c3)c(c(-c3cccnc3[C@H](C)OC)n4CC)CC(C)(C)COC(=O)[C@@H]3CCCN(N3)C2=O)C(C)C)CC1	100 to 1000 nM
C=C(C)C(=O)N1CC(N(C)C(=O)N(C)[C@H](C(=O)N[C@H]2Cc3nc(cs3)-c3ccc4c(c3)c(c(-c3cccnc3[C@H](C)OC)n4CC)CC(C)(C)COC(=O)[C@@H]3CCCN(N3)C2=O)C(C)C)C1	1000 to 10000 nM
CCn1c(-c2cccnc2[C@H](C)OC)c2c3cc(ccc31)-c1cnc(o1)C[C@H](NC(=O)[C@@H](COC1CN(C(=O)C#CC(C)(C)N(C)C)C1)C(C)C)C(=O)N1CCC[C@H](N1)C(=O)OCCC2 (atropisomer, axis not shown)	> 10000 nM
CCn1c(-c2cccnc2[C@H](C)OC)c2c3cc(ccc31)-c1csc(n1)C[C@H](NC(=O)[C@H](C(C)C)N(C)C(=O)C1CCN(C(=O)/C=C/CN(C)C)C[C@@H]1C)C(=O)N1CCC[C@H](N1)C(=O)OCC(C)(C)C2 (stereo partly drawn)	10 to 100 nM
CC[C@H](COC1CN(C(=O)C#CC(C)(C)N(C)C)C1)C(=O)N[C@H]1Cc2nc(cs2)-c2ccc3c(c2)c(c(-c2cccnc2[C@H](C)OC)n3CC)CC(C)(C)COC(=O)[C@@H]2CCCN(N2)C1=O (atropisomer, axis not shown)	100 to 1000 nM
CC[C@@H](COC1CN(C(=O)C#CC(C)(C)N(C)C)C1)C(=O)N[C@H]1Cc2nc(cs2)-c2ccc3c(c2)c(c(-c2cccnc2[C@H](C)OC)n3CC)CC(C)(C)COC(=O)[C@@H]2CCCN(N2)C1=O (atropisomer, axis not shown)	1000 to 10000 nM
C=CC(=O)N(C)CC1CCN(C(=O)N(C)[C@H](C(=O)N[C@H]2Cc3nc(cs3)-c3ccc4c(c3)c(c(-c3cccnc3[C@H](C)OC)n4CC)CC(C)(C)COC(=O)[C@@H]3CCCN(N3)C2=O)C(C)C)CC1 (atropisomer, axis not shown)	10 to 100 nM
C=CC(=O)N(C)CCN1CCN(C(=O)N(C)[C@H](C(=O)N[C@H]2CN3CCC=C(C3)c3ccc4c(c3)c(c(-c3cccnc3[C@H](C)OC)n4CC)CC(C)(C)COC(=O)[C@@H]3CCCN(N3)C2=O)C(C)C)C[C@@H]1C	100 to 1000 nM
CCn1c(-c2cccnc2[C@H](C)OC)c2c3cc(ccc31)-c1cccc(c1)C[C@H](NC(=O)[C@H](C(C)C)N1CC[C@]3(CCN(C(=O)C#CC(C)(C)N4CCC4)C3)C1=O)C(=O)N1CCC[C@H](N1)C(=O)OCC(C)(C)C2	100 to 1000 nM
C=CC(=O)N1CC[C@H](C(=O)C2CC[C@H](C)[C@H]2C(=O)N[C@H]2Cc3cccc(c3)-c3ccc4c(c3)c(c(-c3cccnc3[C@H](C)OC)n4CC)CC(C)(C)COC(=O)[C@@H]3CCCN(N3)C2=O)C1 (stereo partly drawn)	100 to 1000 nM
CCn1c(-c2cccnc2[C@H](C)OC)c2c3cc(ccc31)-c1csc(n1)C[C@H](NC(=O)[C@H](C(C)C)N(C)C(=O)C1CCN(C(=O)/C=C/CN(C)C)C3(CC3)C1)C(=O)N1CCC[C@H](N1)C(=O)OCC(C)(C)C2 (stereo partly drawn)	10 to 100 nM
